Values compiled from the supplement of paper PMC10567573.

Assay: protein stability index of a GFP-peptide fusion (GPS, HEK-293T) (PSI 1-6); higher = more stable;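 also: 24-mer peptide tiles fused after GFP, lentivirally expressed, FACS-sorted into six equal bins by GFP/DsRed ratio, decoded by Illumina sequencing, PSI is the read-weighted mean bin number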
Settings: treatment: MLN4924 1 uM, 8 h; c terminus: a fixed tail appended
sequences and their reported protein stability index
Returns: the value as a bare number; no unit string appended.

Before answering, review these 5 worked examples.
{"columns": ["CHAIN", "ASSAY_VALUE"],
 "data": [
  ["LVDNVYCIGQRRFHTMDELVEHYK [NCK2]", 3.96],
  ["RTNLPIFKLKESCVRRRYSDFEWL [SNX12]", 2.74],
  ["KYSFLQFDPAPRRGEPHVTRRTPD [PPP2CA]", 3.85],
  ["AAGELPTVECYNPRTNEWTYVAKM [KLHL13]", 3.2],
  ["VDRWPAPVPGKTLHLPIMGVVMKV [DENND6A]", 2.4]
]}

Ask: Quick one: protein stability index for TRKHHCRRCGKCFCDRCCSQKVPL [ZFYVE21] ?
Reply: 3.58

Ask: Try the sequence NRNHNEGMVTRCIIEVLSNALSKS [CHGB]
Reply: 2.1

Ask: Try the sequence VSRRLSPRKVSTCTDHELENHSMY [TRIM9]
Reply: 3.77
